ASSAY TARGET: benzodiazepine receptors
EXPERIMENT NOTES: Radioligand binding, displacement of [3H]-βCCE
CONDITION LABEL: rat whole brain membranes, 0.5nM [3H] ligand
Structures can show the parent of a compound that is named as a salt.
VALUE KIND: Ki (nM)
The response must be a number in nM with no trailing unit.

O=c1c2c[nH]c3ccsc3c-2nn1-c1ccc(Cl)cc1 = 0.38
CCOC(=O)c1cnc2ccsc2c1NNc1ccccc1 [Example E1, monohydrochloride] = 5000

Field Ki (entry `Cc1ccc(-n2nc3c4sccc4[nH]cc-3c2=O)cc1` ) reads 0.31

###

ASSAY TARGET: benzodiazepine receptors
EXPERIMENT NOTES: Radioligand binding, displacement of [3H]-βCCE
CONDITION LABEL: rat whole brain membranes, 0.5nM [3H] ligand
Structures can show the parent of a compound that is named as a salt.
VALUE KIND: Ki (nM)
Report the figure in nM without appending any unit label.

Cc1[nH]c2ccsc2c2nn(-c3ccccc3)c(=O)c1-2 = 107
CCOC(=O)c1cnc2ccsc2c1NNc1ccccn1 [Example E6, monohydrochloride] = 360
CCOC(=O)c1c(C)nc2ccsc2c1NNc1ccccc1 [Example E10, monohydrochloride] = 23000

// switching to the query compound
Sure, the documented Ki for CCOC(=O)c1cnc2ccsc2c1NNc1ccc([N+](=O)[O-])cc1 [Example E3, monohydrochloride] is 1500
